Quick reference for protein stability index among some sequences
system: Saccharomyces cerevisiae; test: protein stability index of tFT-peptide fusion (C-terminal peptide) (PSI (0-1 scale)); higher = more stable (slower turnover); conditions: genetic background: das1 deletion; temperature: 30 C
Number, no unit, nothing else.

| polymer sequence | protein stability index |
| --- | --- |
| TCISVFLEVHQV [YDL206W C-terminal 12 aa] | 0.479 |
| NSLTSLSIYAFL [YEL018C-A C-terminal 12 aa] | 0.709 |
| LNDLSNVRHSKT [HER1 C-terminal 12 aa] | 0.689 |
| SKREFIESLRPK [SKG1 C-terminal 12 aa] | 0.707 |
| LSQRAWATKKPI [YJL028W C-terminal 12 aa] | 0.696 |
| PVSESSSPNSWP [YDR230W C-terminal 12 aa] | 0.768 |

[in] // query protein stability index value for entry EKVRNEGFIKNP [GPM2 C-terminal 12 aa]
[out] 0.716

[in] And for LIDLCCSCAGGM [MNC1 C-terminal 12 aa] ?
[out] 0.685

[in] And for ICCQVAKSLLKI [YGL074C C-terminal 12 aa] ?
[out] 0.656

[in] And for VFPGNYVQLNKN [RVS167 C-terminal 12 aa] ?
[out] 0.693

[in] And for KAINFDEDVLNL [VID30 C-terminal 12 aa] ?
[out] 0.66
